# PROTOCOL SUMMARY: NCI Yeast Anticancer Drug Screen. Data for the cln2 rad14 strain (AID 165);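 further: 0% = growth equal to vehicle treated cultures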
# COND: S. cerevisiae cln2 rad14 strain, at 5.0 µM (retest, dose inferred, filed as 0.5), stronger effect = higher value
Compounds without any hit were thinned out: in the full panel of roughly 79,000, 15% have a hit.
READOUT KIND: growth inhibition (%)
Answers are plain numbers, in %.

Each molecule below has a reported value. Please supply its growth inhibition.
1. Cc1ccc(Nc2n[nH]c(=S)s2)cc1C
2. O=C1c2ccccc2C2CCC1c1ccccc12 (configuration not stated)

[65, -19]

Each molecule below has a reported value. Please supply its growth inhibition.
1. Cc1cc(NCCCN(C)C)c2ccc3c(ccc4c(NCCCN(C)C)cc(C)nc43)c2n1
2. CN(C)N1C(=O)SCC(c2ccccc2)(c2ccccc2)C1=O
3. [N-]=[N+]=NC1CC(n2ccc(=O)[nH]c2=O)OC1COC(c1ccccc1)(c1ccccc1)c1ccccc1 (configuration not stated)

8
-26
33

Each molecule below has a reported value. Please supply its growth inhibition.
1. CN(C)CCNC(=O)c1cccc2nc3c(ccc4ccccc43)nc12
2. O=C1C(Br)=CC(Br)(Br)C=C1Br
3. CCOC(=O)/C(O)=C(/C=N/C(=S)Nc1c(CC)cccc1CC)C(=O)OCC
4. CN(Cc1cccc2ccccc12)Cc1cccc2ccccc12
5. Cc1ccc(SSc2ccc(C)cc2[N+](=O)[O-])c([N+](=O)[O-])c1
6. O=C1OC(c2ccc(Cl)cc2)Sc2ccccc21 (configuration not stated)
7. CC(C)(C(=O)NN)c1ccccc1

1. 4
2. 56
3. -1
4. -17
5. 37
6. -61
7. 20

====

# PROTOCOL SUMMARY: NCI Yeast Anticancer Drug Screen. Data for the rad14 strain (AID 159);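 further: 0% = growth of vehicle-treated control cultures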
# COND: S. cerevisiae rad14 strain growth inhibition; at 33.0 µM; stronger effect = higher value
This is part of a sample that, as a whole, favours compounds with a hit. Of some 79,000 tested, about 15% had one in any assay.
Ranges used to classify growth inhibition: lower segment (below 40%), middle segment (40% to below 90%), upper segment (90% or more)

Sample answers from the record:
> print(dat)
                                   molecule     class.name
1  CN1CCN(c2ccc3nc(-c4ccc5nc(-c6ccc(O)cc6)[nH]c5c4)[nH]c3c2)CC1  upper segment
2  Cc1ccc(C(C)C)c(C(=C2C=CC(=[N+](C)C)C=C2)c2c(C(C)C)ccc(C)c2O)c1O  upper segment
3  CCC(C)/C(C)=N/NC(N)=O (stereo not given)  lower segment
4                          O=Cc1ccccc1B(O)O  upper segment
5  COc1ccc(/C=C2\S/C(=N/Nc3nc(-c4ccccc4)cs3)NC2=O)cc1OC  upper segment

Any idea which band `O=C(Nn1c(-c2ccccc2)nc2ccccc2c1=O)c1ccc(Cl)cc1` is in? middle segment

Any idea which band `CC(=O)CC[N+](C)(C)C` is in? lower segment

Any idea which band `CN(C)CCC(=O)c1c[nH]c2ccccc12` is in? lower segment

Any idea which band `C[Si](C)(C)Cc1ccccc1C(=O)O` is in? lower segment

Any idea which band `COc1ccc(CCN2C(=O)C=CC2=O)cc1OC` is in? upper segment

====

# PROTOCOL SUMMARY: NCI Yeast Anticancer Drug Screen. Data for the rad50 strain (AID 155);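 further: 0% = growth of vehicle-only cultures of the same strain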
# COND: S. cerevisiae rad50 strain growth inhibition; at 1.2 µM; stronger effect = higher value
Compounds without any hit were thinned out: in the full panel of roughly 79,000, 15% have a hit. Starred links: 1 amine or outer side, 2 acyl side, 3 side chain; linkers in the order of their positions; H or OH if unused. Positions of bridges follow the written chain, without caps; N, C: chain ends. Non-standard residues stand in square brackets, D forms with d. Residues, ends and D or L forms follow the SMILES beside them. Chains are numbered I, II in the order given. Actinocin(9to1) = Cc1c2oc3c(C)ccc(C(=O)[*:1])c3nc-2c(C(=O)[*:2])c(N)c1=O; aThr = C[C@H](O)[C@H](N)C(=O)O; NMeV = CN[C@H](C(=O)O)C(C)C; Sar = CNCC(=O)O
READOUT KIND: growth inhibition (%)
One number for each entry, in %.

Worked examples, 5 compounds total:
COMPOUND	growth inhibition [%]
Cc1nc2ccc(Br)cc2c(=O)n1-c1ccc(NC2OCC(O)C(O)C2O)cc1 (stereo not given)	-3
CC1C=CN(N(C)C)C2=C1C(=O)c1cnccc1C2=O (stereo not given)	31
O=C(O)/C=C\C(=O)NNc1ccc(Br)cc1	8
CC(O)CN1C(=O)c2cccc3cc([N+](=O)[O-])cc(c23)C1=O (stereo not given)	-2
O=CC(=C(I)I)c1ccccc1	93

Each compound below has a reported value. Please supply its growth inhibition.
1. O=[N+]([O-])C(=C(NCc1ccccc1)NCc1ccccc1)C(Cl)=C(Cl)Cl
2. CCCC(=O)OC(OC(=O)CCC)c1ccc([N+](=O)[O-])o1
3. CCCCCCCCCC/C=C\CC(=O)O
4. CN(C)c1ccc(C(c2ccc(Cl)cc2)c2ccc(N(C)C)cc2)cc1
5. CCOC(=O)/C=C1\CCCn2c1ncc(C(=O)OCC)c2=O
6. CN(C)CCNC(=O)c1cccc2nc3c(ccc4ccccc43)nc12
7. CC[N+]1(C)CCC(O)(/C=C/c2ccc(Cl)c(Cl)c2)C(C(=O)/C=C/c2ccc(Cl)c(Cl)c2)C1 (stereo not given)
8. Cc1ccc2c(/C=C/c3ccc(N(C)C)cc3)ccnc2c1C

1
-2
0
64
-1
3
7
-15

Each compound below has a reported value. Please supply its growth inhibition.
1. Cc1cccc(N2CCN(C(=O)/C(=C/c3ccccc3)NC(=O)c3ccccc3)CC2)c1
2. O=S(=O)(CCC[C@H]1[C@@H](CCOCc2ccccc2)C2CCCN1O2)c1ccccc1 (stereo not given in full)
3. O=C1C(C(O)(C(F)(F)F)C(F)(F)F)CCC1C(O)(C(F)(F)F)C(F)(F)F (stereo not given)
4. Nc1cccc2cc(Cl)cnc12
5. Cc1c(N=Nc2ccc(Cl)cc2)c(C)n(C2OC(CO)C(O)C(O)C2O)c(=S)c1C#N (stereo not given)
6. CC[C@@]1(OC(=O)CN(C)C)C(=O)OCc2c1cc1n(c2=O)Cc2cc3ccccc3nc2-1
7. O=C(O)[C@H]1[C@@H](C2CCCCC2)O[C@@H](C2CCCCC2)O[C@H]1C(F)(F)F

1. -4
2. -3
3. -4
4. 18
5. -3
6. 81
7. -4

Each compound below has a reported value. Please supply its growth inhibition.
1. c1ccc2cc(OCC3CO3)c(OCC3CO3)cc2c1 (stereo not given)
2. O=C1C(Br)=CC(Br)(Br)C=C1Br
3. [N-]=[N+]=NC1CC(n2ccc(=O)[nH]c2=O)OC1COC(c1ccccc1)(c1ccccc1)c1ccccc1 (stereo not given)
4. CC(=O)O/N=C/c1c2ccccc2cc2ccccc12
5. Cc1ccc(SSc2ccc(C)cc2[N+](=O)[O-])c([N+](=O)[O-])c1
6. CCCCCC(=O)C(C)(c1nc2n(c1O)/C(=N/C(=O)Nc1ccc(Cl)cc1)N=N2)c1nc2n(c1O)/C(=N/C(=O)Nc1ccc(Cl)cc1)N=N2
7. Cc1c2oc3c(C)ccc(C(=O)N[C@@H]4C(=O)N[C@H](C(C)C)C(=O)N5CCC[C@H]5C(=O)N(C)CC(=O)N(C)[C@@H](C(C)C)C(=O)O[C@H]4C)c3nc-2c(C(=O)N[C@@H]2C(=O)N[C@H](C(C)C)C(=O)N3CCC[C@H]3C(=O)N(C)CC(=O)N(C)[C@@H](C(C)C)C(=O)O[C@H]2C)c(N)c1=O (I: [aThr][dV]P[Sar][NMeV] / II: [aThr][dV]P[Sar][NMeV]; ester I:1-I:C, II:1-II:C; linker I:N-II:N via Actinocin(9to1))
8. O=S(=O)(Oc1c(Cl)cc(Cl)cc1Cl)c1ccccc1

-26
0
1
0
8
6
9
0

Each compound below has a reported value. Please supply its growth inhibition.
1. COc1ccc(C(=O)OCCc2ccccc2)cc1
2. Cc1ccc(S(=O)(=O)N/N=C/c2c(O)ccc3ccccc23)cc1
3. CCOc1ccccc1N1C(=O)CC(Sc2ccccc2N)C1=O (stereo not given)
4. NNc1nnc(-c2ccccc2)nc1Cc1ccccc1
5. COc1ccc2cc(CN3CCC(C4CCN(Cc5ccc6cc(OC)ccc6c5)CC4)CC3)ccc2c1
6. O=C(CCCN1CCC2(CC1)OC(=O)N(c1ccccc1)C2=O)c1ccccc1
7. COc1ccc(/C=C2\CCc3ccccc3C2=O)cc1OC
8. C#CC1=CC(=O)C(OC)=CC1=O

6
19
13
4
-2
31
3
14

====

For each of the compounds below, state its growth inhibition.
# PROTOCOL SUMMARY: NCI Yeast Anticancer Drug Screen. Data for the wt1 strain (AID 149);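 further: 0% = growth of vehicle-treated wt1 cultures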
# COND: S. cerevisiae wt1 strain (SPY 50644) growth inhibition; at 11.0 µM; stronger effect = higher value
The panel holds about 79,000 compounds, 15% with a hit somewhere; the sample as a whole holds those more often.
Answers are plain numbers, in %.

Worked examples, 5 compounds total:
COMPOUND	READOUT KIND	MEASURED RESULT
Cc1ccc(N(C=O)c2c([N+](=O)[O-])cc([N+](=O)[O-])c3c2=[N+]([O-])CN=3)cc1	growth inhibition	20
CC1C=CN(N(C)C)C2=C1C(=O)c1cnccc1C2=O (stereo not given)	growth inhibition	47
O=C1OC(c2ccc(Cl)cc2)Sc2ccccc21 (stereo not given)	growth inhibition	17
CCCCCCC(CCl)c1sc(-c2csc(CCNC(=O)OC(C)(C)C)n2)nc1C(=O)OC (stereo not given)	growth inhibition	-5
O=C(Cc1ccccc1F)NC1=C(Cl)C(=O)c2ccccc2C1=O	growth inhibition	0

Each compound below has a reported value. Please supply its growth inhibition.
1. COc1ccc(C(=O)OCCc2ccccc2)cc1
2. c1ccc(N/N=C2\CC(c3ccccc3)Oc3ccccc32)cc1 (stereo not given)
3. O=Cc1ccccc1B(O)O
4. CNC(=O)OCc1c(COC(=O)NC)c(C)n(-c2ccc(Cl)c(Cl)c2)c1C
5. S=c1[nH]nc(Cc2ccccc2)c(=S)[nH]1
6. CC(O)CN1C(=O)c2cccc3cc([N+](=O)[O-])cc(c23)C1=O (stereo not given)
7. CN(C)CCn1c2ccccc2c2nc3cc4ccccc4cc3nc21

1: -5; 2: -3; 3: 66; 4: -54; 5: 30; 6: 1; 7: 28

Each compound below has a reported value. Please supply its growth inhibition.
1. CN(C)/N=N/c1nc[nH]c1C(N)=O
2. Nc1nc(Nc2ccccc2)nc(Nc2ccccc2)n1
3. Cc1[nH]nc(C(F)(F)F)c1N=NN(C)C
4. CN(C)CCC(=O)c1c[nH]c2ccccc12
5. COc1ccc(CCN2C(=O)C=CC2=O)cc1OC
6. N=c1oc2ccccc2cc1-c1nc2ccccc2[nH]1
7. Cc1ccc2oc(-c3cccc(N)c3)nc2c1
8. Cc1cccc[c]1[Sn]([Cl])([S]/C(C#N)=N/N=C/c1ccc(N(C)C)cc1)[c]1ccccc1C

-3
-12
46
-7
62
15
2
-8
